system: panel of 55 breast cancer cell lines; assay: Cell growth inhibition assay (Cell Titer Glo, 72 h, 9 doses; GI50, TGI, LC50); type: cell-based, human; conditions: Homo sapiens, SUM149PT, cell line SUM149PT; read-out: GI50 (converted)
measured quantity: GI50 (nM)

>>> df
                         structure_notation  recorded_value
0                     CCNCCCNC/C=C\CNCCCNCC           28800
1  Cn1cnc2c(F)c(Nc3ccc(Br)cc3Cl)c(C(=O)NOCCO)cc21             525
2  Cc1[nH]c2ccccc2c1CCNCc1ccc(/C=C/C(=O)NO)cc1             316
3  Cc1cncc2cccc(S(=O)(=O)N3CCCN(C(=O)CN)C[C@@H]3C)c12           30200
4  O=C1c2ccccc2-[n+]2ccc3c([nH]c4ccccc43)c21             398

----------
test system: panel of 55 breast cancer cell lines; assay: Cell growth inhibition assay (Cell Titer Glo, 72 h, 9 doses; GI50, TGI, LC50); type: cell-based, human; conditions: HCC1954 cell line; censored GI50 values; value is the negative log10 of mol/L
With a cut-off of 7, any GI50 strictly below it is called Fulfilled; any GI50 meeting it or above is called Not fulfilled.

>>> print(df.to_string())
                                   compound                     target_under_test  discrete_label
0  N.N.O=C([O-])C1(C(=O)[O-])CCC1.[Pt+2] [Carboplatin]  panel of 55 breast cancer cell lines       Fulfilled
1  O=c1[nH]c(=O)n([C@H]2C[C@H](O)[C@@H](CO)O2)cc1F [5-FdUR]  panel of 55 breast cancer cell lines       Fulfilled
2  C[C@@H](Oc1cc(-n2cnc3ccc(CN4CCN(C)CC4)cc32)sc1C(N)=O)c1ccccc1C(F)(F)F [GSK461364A]  panel of 55 breast cancer cell lines   Not fulfilled
3  C=CCNC1=C2C[C@@H](C)C[C@H](OC)[C@H](O)[C@@H](C)/C=C(\C)[C@H](OC(N)=O)[C@@H](OC)/C=C\C=C(/C)C(=O)NC(=CC1=O)C2=O [17-AAG]  panel of 55 breast cancer cell lines   Not fulfilled
4  CC(C)Oc1ccc(C(=O)N[C@H](CNC(=O)CN(C)C)Cc2ccc(-c3cn4cccc([C@H](C)O)c4n3)cc2)cc1Cl [GSK923295]  panel of 55 breast cancer cell lines   Not fulfilled
5  CNC(=O)c1c(F)cccc1Nc1nc(Nc2cc3c(cc2OC)CCN3C(=O)CN(C)C)nc2[nH]ccc12 [GSK1838705A]  panel of 55 breast cancer cell lines       Fulfilled

----------
tested on: panel of 55 breast cancer cell lines; experiment: Cell growth inhibition assay (Cell Titer Glo, 72 h, 9 doses; GI50, TGI, LC50); assay type: cell-based, human; details: SUM1315MO2 cell line; censored GI50 values; value is the negative log10 of mol/L
measured quantity: GI50

>>> print(df.to_string())
                                   compound  measured_quantity  recorded_value
0  CC(C)[C@H](CO)Nc1nc(Nc2cccc(Cl)c2)c2ncn(C(C)C)c2n1 [Purvalanol A]               GI50            5.09
1  CC(C)(C)c1cc(C=C(C#N)C#N)cc(Br)c1O [AG1024]               GI50            5.17
2  O=c1[nH]c(=O)n([C@H]2C[C@H](O)[C@@H](CO)O2)cc1F [5-FdUR]               GI50            3.13
3  Cc1cc(C(C)Nc2ccccc2)c2nc(N3CCOCC3)cc(=O)n2c1 (stereo not drawn) [TGX-221]               GI50            5.04
4  NC(=O)Nc1sc(-c2ccc(F)cc2)cc1C(N)=O [TPCA-1]               GI50            6.09
5  CNC(=O)c1c(F)cccc1Nc1nc(Nc2cc3c(cc2OC)CCN3C(=O)CN(C)C)nc2[nH]ccc12 [GSK1838705A]               GI50            5.33

----------
test system: panel of 55 breast cancer cell lines; assay: Cell growth inhibition assay (Cell Titer Glo, 72 h, 9 doses; GI50, TGI, LC50); assay type: cell-based, human; details: Homo sapiens, BT-20, cell line BT20; read-out: GI50 (converted)

compound	GI50
CCN(CC)CCNC(=O)c1c(C)[nH]c(/C=C2\C(=O)Nc3ccc(F)cc32)c1C [Sunitinib Malate]	16.6 µM
CO[C@H]1C[C@@H]2CC[C@@H](C)[C@@](O)(O2)C(=O)C(=O)N2CCCC[C@H]2C(=O)O[C@H]([C@H](C)C[C@@H]2CC[C@@H](OC(=O)C(C)(CO)CO)[C@H](OC)C2)CC(=O)[C@H](C)/C=C(\C)[C@@H](O)[C@@H](OC)C(=O)[C@H](C)C[C@H](C)/C=C/C=C/C=C/1C [Temsirolimus]	0.776 µM
COc1cc([C@@H]2c3cc4c(cc3[C@@H](O[C@@H]3O[C@@H]5CO[C@@H](C)O[C@H]5[C@H](O)[C@H]3O)[C@H]3COC(=O)[C@H]23)OCO4)cc(OC)c1O [Etoposide]	3.31 µM

----------
system: panel of 55 breast cancer cell lines; test: Cell growth inhibition assay (Cell Titer Glo, 72 h, 9 doses; GI50, TGI, LC50); type: cell-based, human; details: Homo sapiens, HCC202, HCC202 cell line; censored GI50 values; read-out: GI50 (converted)
Measured log10 of GI50, listed per entry.
measured quantity: log10 of GI50 (log10 of the value in µM)

compound	recorded value
COC1=C2C[C@@H](C)C[C@H](OC)[C@H](O)[C@@H](C)/C=C(\C)[C@H](OC(N)=O)[C@@H](OC)/C=C\C=C(/C)C(=O)NC(=CC1=O)C2=O [Geldanamycin]	-2.83
CCC1=C[C@@H]2CN(C1)Cc1c([nH]c3ccccc13)[C@@](C(=O)OC)(c1cc3c(cc1OC)N(C)[C@H]1[C@@](O)(C(=O)OC)[C@H](OC(C)=O)[C@]4(CC)C=CCN5CC[C@]31[C@@H]54)C2 [Vinorelbine]	-1.87
COc1cccc2c1C(=O)c1c(O)c3c(c(O)c1C2=O)C[C@@](O)(C(=O)CO)C[C@@H]3O[C@H]1C[C@H](N)[C@@H](O)[C@H](C)O1 [Epirubicin]	-0.22
CC[C@@]1(O)C(=O)OCc2c1cc1n(c2=O)Cc2cc3c(CN(C)C)c(O)ccc3nc2-1 [Topotecan]	-0.12
CC(C)C[C@H](NC(=O)[C@H](Cc1ccccc1)NC(=O)c1cnccn1)B(O)O [Bortezomib]	-2.14

----------
system: panel of 55 breast cancer cell lines; test: Cell growth inhibition assay (Cell Titer Glo, 72 h, 9 doses; GI50, TGI, LC50); assay type: cell-based, human; conditions: Homo sapiens, HCC1954, HCC1954 cell line; censored GI50 values; read-out: GI50 (converted)

compound	GI50
CC[C@@]1(O)C(=O)OCc2c1cc1n(c2=O)Cc2cc3c(CN(C)C)c(O)ccc3nc2-1 [Topotecan]	302 nM
COc1cc([C@@H]2c3cc4c(cc3[C@@H](O[C@@H]3O[C@@H]5CO[C@@H](C)O[C@H]5[C@H](O)[C@H]3O)[C@H]3COC(=O)[C@H]23)OCO4)cc(OC)c1O [Etoposide]	1000 nM
CCNCCCNC/C=C\CNCCCNCC [CGC-11047]	692 nM
CC(=O)O[C@H]1C(=O)[C@@]2(C)[C@H]([C@H](OC(=O)c3ccccc3)[C@]3(O)C[C@H](OC(=O)[C@H](O)[C@@H](NC(=O)c4ccccc4)c4ccccc4)C(C)=C1C3(C)C)[C@]1(OC(C)=O)CO[C@@H]1C[C@@H]2O [Paclitaxel]	7.08 nM
COc1cc2ncnc(Nc3ccc(F)c(Cl)c3)c2cc1OCCCN1CCOCC1 [Iressa]	2040 nM
CC(C)C[C@H](NC(=O)[C@H](Cc1ccccc1)NC(=O)c1cnccn1)B(O)O [Bortezomib]	10 nM
COc1cc(Nc2c(C#N)cnc3cc(OCCCN4CCN(C)CC4)c(OC)cc23)c(Cl)cc1Cl [Bosutinib]	1170 nM
CCN(CC)CCCCNc1ncc2cc(-c3cc(OC)cc(OC)c3)c(NC(=O)NC(C)(C)C)nc2n1 [PD173074]	7590 nM
COc1cccc2c1C(=O)c1c(O)c3c(c(O)c1C2=O)C[C@@](O)(C(=O)CO)C[C@@H]3O[C@H]1C[C@H](N)[C@@H](O)[C@H](C)O1 [Epirubicin]	200 nM
Cn1c(=O)n(-c2ccc(C(C)(C)C#N)cc2)c2c3cc(-c4cnc5ccccc5c4)ccc3ncc21 [BEZ235]	52.5 nM
O=C1c2ccccc2-[n+]2ccc3c([nH]c4ccccc43)c21 [Fascaplysin]	269 nM
CC(=O)O[C@@]12CO[C@@H]1C[C@H](O)[C@@]1(C)C(=O)[C@H](O)C3=C(C)[C@@H](OC(=O)[C@H](O)[C@@H](NC(=O)OC(C)(C)C)c4ccccc4)C[C@@](O)([C@@H](OC(=O)c4ccccc4)[C@H]21)C3(C)C [Docetaxel]	1.66 nM
CCC1=C[C@@H]2CN(C1)Cc1c([nH]c3ccccc13)[C@@](C(=O)OC)(c1cc3c(cc1OC)N(C)[C@H]1[C@@](O)(C(=O)OC)[C@H](OC(C)=O)[C@]4(CC)C=CCN5CC[C@]31[C@@H]54)C2 [Vinorelbine]	3.55 nM
